Each entry below carries its recorded melting point.

- compound: "O=C(C=Cc1ccc(Oc2ccc(Br)cc2)cc1)c1ccc(Cl)cc1"
  melting point: "150 to 152 °C"
- compound: "Cc1ccc(C(=O)C=Cc2ccc(Oc3ccc(Cl)cc3)cc2)cc1"
  melting point: "136 to 138 °C"
- compound: "CC(=O)N1N=C(c2ccc(Cl)cc2)CC1c1ccc(Oc2ccc(Br)cc2)cc1 (centres unmarked)"
  melting point: "142 to 144 °C"
- compound: "O=C(C=Cc1ccc(Oc2ccc(Cl)cc2)cc1)c1ccc(Cl)cc1"
  melting point: "120 to 122 °C"
- compound: "CC(=O)N1N=C(c2ccc(C)cc2)CC1c1ccc(Oc2ccc(Br)cc2)cc1 (centres unmarked)"
  melting point: "141 to 143 °C"
- compound: "O=C(C=Cc1ccc(Oc2ccc(Br)cc2)cc1)c1ccc(Br)cc1"
  melting point: "164 to 166 °C"
- compound: "CC(=O)N1N=C(c2ccc(Br)cc2)CC1c1ccc(Oc2ccc(Cl)cc2)cc1 (centres unmarked)"
  melting point: "117 to 119 °C"
- compound: "CC(=O)N1N=C(c2ccc(Br)cc2)CC1c1ccc(Oc2ccc(Br)cc2)cc1 (centres unmarked)"
  melting point: "138 to 140 °C"
- compound: "CC(=O)N1N=C(c2ccc(C)cc2)CC1c1ccc(Oc2ccc(Cl)cc2)cc1 (centres unmarked)"
  melting point: "118 to 120 °C"
- compound: "CC(=O)N1N=C(c2ccc(Cl)cc2)CC1c1ccc(Oc2ccc(Cl)cc2)cc1 (centres unmarked)"
  melting point: "116 to 118 °C"
- compound: "O=C(C=Cc1ccc(Oc2ccc(Cl)cc2)cc1)c1ccc(Br)cc1"
  melting point: "143 to 145 °C"

All values here come from paper PMC8667918.
